Record form. Attribute: Population Mitochondria Different-Phenotype (%). Fill in for each entry.
Test system: Fibroblast
Experiment: Multiplex assay against human fibroblast
Type: toxicity, cell-based
Settings: 48 h, 1 µM, compound concentration 1 uM, replicate 1
Phrase the answer as number then unit, nothing more needed.

Exam item: What does the record list as Population Mitochondria Different-Phenotype (%) for Cc1c(P(=S)(c2ccccc2)c2ccccc2)n2ccccc2[n+]1C/C=C/c1ccccc1.[Br-] ?
Marked response: 42%

Exam item: Next molecule up: CCCCN(CC)c1nc(C)nc2c1c(C)cn2-c1c(C)cc(C)cc1C.Cl
Marked response: 6%

Exam item: Ok, now Cc1ccc(S(=O)(=O)NC2c3ccccc3Oc3ccccc32)cc1
Marked response: 4%

Exam item: Continue with N#Cc1cccc(C(=O)Nc2cc(-c3ccccc3)nn2-c2ccccc2)c1
Marked response: 3%

---

System: U2OS
Test: Multiplex assay against U2OS
Format: toxicity, cell-based
Conditions: human, 12 h, 1 µM, compound concentration 1 uM, replicate 2
Kindly supply the reported Population Normal (%) values for the records listed here.
Value expressed in %; do not type the unit.

Exam item: Entry CCCc1cc(C)[nH]c(=O)c1CNC(=O)c1cc(-c2ccc(N3CCN(C(C)C)CC3)nc2)cc2c1cnn2C(C)C has what Population Normal (%)?
Marked response: 89

Exam item: Then CC(C)[C@H](CO)Nc1nc(Nc2cccc(Cl)c2)c2ncn(C(C)C)c2n1 ?
Marked response: 89

Exam item: What about CC(C)c1cc(Nc2nc(N3CCC[C@H](N)C3)ncc2C(N)=O)cc(C(C)C)n1 ?
Marked response: 90

Exam item: Please answer likewise for Cc1c(Nc2ccc(S(=O)(=O)N3CCN(C)CC3)cc2F)nc2ccc(-c3cnn(C4CC4)c3)cn2c1=O
Marked response: 91

Exam item: Would you mind doing CC[C@@H]1C(=O)N(C)c2cnc(Nc3ccc(C(=O)NC4CCN(C)CC4)cc3OC)nc2N1C1CCCC1 as well?
Marked response: 91

Exam item: # iterate: C=CC(=O)Nc1cc(-n2c(=O)ccc3cnc4ccc(-c5ccc(NS(C)(=O)=O)cc5)cc4c32)ccc1C
Marked response: 92

Exam item: Repeat for the following compound: CCOC(=O)CCNc1cc(N2CCc3ccccc3CC2)nc(-c2ccccn2)n1
Marked response: 91

---

Tested on: U2OS
Assay: Multiplex assay against U2OS
Format: toxicity, cell-based
Conditions: human, 12 h, 10 µM, compound concentration 10 uM, replicate 1
For each of the compounds below, state its Population Fragmented Nuclei (%).
Quick note: give the figure in %, leave out the unit.

Exam item: I would be grateful if you could share the reported Population Fragmented Nuclei (%) for CCCCCNC(=N)N/N=C/c1c[nH]c2ccc(OC)cc12.O=C(O)/C=C\C(=O)O [TEGASEROD MALEATE] .
Marked response: 36

Exam item: Similarly, CCOC(=O)CCNc1cc(N2CCc3ccccc3CC2)nc(-c2ccccn2)n1 ?
Marked response: 7

Exam item: Let us now turn to CC(/C=C1\SC(=S)N(CCCC(=O)Nc2ccc(C(=O)O)c(O)c2)C1=O)=C\c1ccccc1
Marked response: 7

---

Give measured Population Healthy Nuclei (%) for each item. Keep answers brief.
System: U2OS
Test: Multiplex assay against U2OS
Format: toxicity, cell-based
Conditions: human, 12 h, 1 µM, compound concentration 1 uM, replicate 2
Please reply with the bare figure in % and do not write the unit itself.

Exam item: Name the reported Population Healthy Nuclei (%) value associated with the compound CCCCCNC(=N)N/N=C/c1c[nH]c2ccc(OC)cc12.O=C(O)/C=C\C(=O)O [TEGASEROD MALEATE]
Marked response: 79

Exam item: Can you check CC(/C=C1\SC(=S)N(CCCC(=O)Nc2ccc(C(=O)O)c(O)c2)C1=O)=C\c1ccccc1 next?
Marked response: 81

Exam item: Could you do the same for NC(=O)c1ccc2nc(-c3ccc(C4(N)CCC4)cc3)c(-c3ccccc3)n2n1 , please?
Marked response: 80

---

Tested on: U2OS
Experiment: Multiplex assay against U2OS
Type: toxicity, cell-based
Conditions: human, 48 h, 10 µM, compound concentration 10 uM, replicate 2
Provide the recorded Total Cell Count for the entries that follow.

Exam item: Sample c1ccc(-c2oc3ncnc(NC[C@@H]4CCCO4)c3c2-c2ccccc2)cc1 — what was its Total Cell Count?
Marked response: 80

Exam item: # iterate: Cl.NC[C@@H]1O[C@H](C23CC4CC(CC(C4)C2)C3)Cc2c1ccc(O)c2O
Marked response: 82

Exam item: What do you have for CCCc1cc(C)[nH]c(=O)c1CNC(=O)c1cc(-c2ccc(N3CCN(C(C)C)CC3)nc2)cc2c1cnn2C(C)C ?
Marked response: 82

---

System: HEK-293T
Assay: Incucyte cell viability with HEK293T; further: filed as whole numbers so only -1 and 0 and 1 occur
Format: toxicity, cell-based
Conditions: human, 24 h, 10 µM, compound concentration 10 uM, replicate number 2, timepoint 24 hours
Hi there, I'd appreciate the recorded Growth Rate for every entry that follows.

Exam item: Give the measured Growth Rate of CC(/C=C1\SC(=S)N(CCCC(=O)Nc2ccc(C(=O)O)c(O)c2)C1=O)=C\c1ccccc1 .
Marked response: 1

Exam item: Consider next the compound CC(C)(Cc1ccccc1)NCC(O)c1ccc(O)c(NS(C)(=O)=O)c1.Cl (centres undefined) [ZINTEROL HYDROCHLORIDE] in the same way.
Marked response: 0

Exam item: And what about the compound CCOC(=O)c1ncn2c1CN(C)C(=O)c1cc(F)ccc1-2 ?
Marked response: 0

Exam item: Also check O=C(NNS(=O)(=O)c1ccccc1)c1cc(-c2ccnnc2)ccc1F
Marked response: 1

---

Please go through the items and note down their Growth Rate.
Tested on: Fibroblast
Assay: Incucyte cell viability with human fibroblast; further: filed as whole numbers so only -1 and 0 and 1 occur
Assay type: toxicity, cell-based
Details: 18 h, 10 µM, compound concentration 10 uM, replicate number 2, timepoint 18 hours

Exam item: Lab note: need Growth Rate with Fibroblast for entry CCOC(=O)c1ncn2c1CN(C)C(=O)c1cc(F)ccc1-2 , please look it up.
Marked response: 0

Exam item: And then C/C(=C/C=C/C(C)=C/C(=O)O)c1cc(C(C)(C)C)cc(C(C)(C)C)c1OCC(F)F , what is it?
Marked response: 1

Exam item: And then COc1cccc(CNC(=O)c2nc3scc(COCc4ccc(C(=O)O)cc4)c3c(=O)[nH]2)c1 [T-26c] , what is it?
Marked response: 0

---

Test system: Fibroblast
Assay: Multiplex assay against human fibroblast
Format: toxicity, cell-based
Conditions: 12 h, 1 µM, compound concentration 1 uM, replicate 2
Readout Name: Population Healthy Nuclei (%)
Answer in %, number only, no unit symbol.

Exam item: For CCCCCNC(=N)N/N=C/c1c[nH]c2ccc(OC)cc12.O=C(O)/C=C\C(=O)O [TEGASEROD MALEATE] , what is its reported Population Healthy Nuclei (%)?
Marked response: 79

Exam item: Proceed to CC(C)C[C@H](NC(=O)[C@H](Cc1ccccc1)NC(=O)CNC(=O)CNC(=O)[C@@H](N)Cc1ccc(O)cc1)C(=O)O
Marked response: 82

---

Test system: HEK-293T
Test: Multiplex assay against HEK293T
Assay type: toxicity, cell-based
Conditions: human, 24 h, 1 µM, compound concentration 1 uM, replicate 1
So I've got a bunch of compounds here, and I need their Population Normal (%) values.
Give just the numeric value; % need not be written.

Exam item: Quick check: Population Normal (%) of CC(C)[C@H](CO)Nc1nc(Nc2cccc(Cl)c2)c2ncn(C(C)C)c2n1 [PURVALANOLA] ?
Marked response: 88

Exam item: Item: CCOc1ccn(-c2ccc(F)cc2)c(=O)c1C(=O)Nc1ccc(Oc2ccnc(N)c2Cl)c(F)c1 [BMS-777607]
Marked response: 89

Exam item: Same thing, different compound: Cl.Cn1c2c(c3ccc(Cl)c(Cl)c31)C(C#N)C1(CCNCC1)NC2=O (centres undefined)
Marked response: 92

Exam item: Please give the result for CN(c1cc(C(F)(F)F)nc(OCCC(=O)O)n1)c1cccc2c1CCC2 too.
Marked response: 88
